biological target: human granzyme B (Homo sapiens, UniProt P10144); construct: the first amino acid of mature granzyme B; hexa-histidine tag (N, cleaved yes); Factor Xa recognition site Ile-Glu-Gly-Arg (N, cleaved yes); honeybee melittin secretion signal (N, cleaved yes); experiment: Fluorogenic assay for granzyme B (Ac-IEPD-AMC substrate); conditions: recombinant granzyme B, substrate Ac-IEPD-AMC 10 μM, pH 7.5, 25° C.; read-out: Gzm B Ki
Sequence (P10144 21-247): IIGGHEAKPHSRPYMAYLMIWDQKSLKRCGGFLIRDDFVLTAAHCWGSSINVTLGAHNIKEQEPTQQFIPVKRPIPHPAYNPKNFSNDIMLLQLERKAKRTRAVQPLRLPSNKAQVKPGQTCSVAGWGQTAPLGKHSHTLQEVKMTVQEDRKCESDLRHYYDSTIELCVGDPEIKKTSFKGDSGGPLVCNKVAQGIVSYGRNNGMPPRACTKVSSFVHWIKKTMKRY
pKi: −log10 of the molar value.
Each record's pKi is compared with low band = under 6, middle band = from 6 up to 7, high band = 7 and over to give its class.

Query: Form field 'band' for CC[C@H](C)[C@H](NC(=O)Cc1ccccc1)C(=O)N[C@H]1CCc2cccc3c2N(C1=O)[C@H](C(=O)NCc1c[nH]nn1)C3
Response: high band

Query: Form field 'band' for CC[C@H](C)[C@H](NC(=O)Cc1cccc(F)c1F)C(=O)N[C@H]1CCc2cccc3c2N(C1=O)[C@H](C(=O)NCc1nn[nH]n1)C3
Response: high band

Query: Form field 'band' for CC[C@H](C)[C@H](NC(=O)CN(C)C)C(=O)N[C@H]1CCc2cccc3c2N(C1=O)[C@H](C(=O)NCc1nn[nH]n1)C3
Response: middle band

Query: Form field 'band' for CC[C@H](C)[C@H](NC(C)=O)C(=O)N[C@H]1CCc2cccc3c2N(C1=O)[C@H](C(=O)NCc1c[nH]nn1)C3
Response: high band

Query: Form field 'band' for CC[C@H](C)[C@H](NC(=O)CN(C)C)C(=O)N[C@H]1CCc2cccc3c2N(C1=O)[C@H](C(=O)NCc1c[nH]nn1)C3
Response: high band

Query: Form field 'band' for O=C(CC1CCCC1)N[C@H]1CCc2cccc3c2N(C1=O)[C@H](C(=O)NCc1c[nH]nn1)C3
Response: low band

Query: Form field 'band' for CC[C@H](C)[C@H](NC(=O)Cc1csc2ccccc12)C(=O)N[C@H]1CCc2cccc3c2N(C1=O)[C@H](C(=O)NCc1nn[nH]n1)C3
Response: high band

Query: Form field 'band' for CC(C)[C@@H](C(=O)N[C@H]1CCc2cccc3c2N(C1=O)[C@H](C(=O)NCc1nn[nH]n1)C3)c1ccccn1
Response: middle band

Query: Form field 'band' for CC[C@H](C)[C@H](NC(=O)Cc1csc2ccccc12)C(=O)N[C@H]1CCc2cccc3c2N(C1=O)[C@H](C(=O)NCc1c[nH]nn1)C3
Response: high band

Query: Form field 'band' for CC(=O)N1CSC(C)(C)[C@H]1C(=O)N[C@H]1CCc2cccc3c2N(C1=O)[C@H](C(=O)NCc1c[nH]nn1)C3
Response: low band

====

biological target: human granzyme B (Homo sapiens); construct: the first amino acid of mature granzyme B; hexa-histidine tag (N, cleaved yes); Factor Xa recognition site Ile-Glu-Gly-Arg (N, cleaved yes); honeybee melittin secretion signal (N, cleaved yes); assay: Fluorogenic assay for granzyme B (Ac-IEPD-AMC substrate); conditions: recombinant granzyme B, substrate Ac-IEPD-AMC 10 μM, pH 7.5, 25° C.; read-out: Gzm B Ki
observed-property: pKi
pKi here is simply -log10 of the concentration when that concentration is written in mol/L.

Query: Fill in the blank: the reported pKi of CC[C@H](C)[C@@H](C(=O)N[C@H]1CCc2cccc3c2N(C1=O)[C@H](C(=O)NCc1c[nH]nn1)C3)N1CCCC1=O [Example 30] is ____.
Response: 6.95

Query: Fill in the blank: the reported pKi of CC(=O)N[C@H](C(=O)N[C@H]1CCc2cccc3c2N(C1=O)[C@H](C(=O)NCc1c[nH]nn1)C3)C1CCCC1 [Example 33] is ____.
Response: 7.15

Query: Fill in the blank: the reported pKi of CC(=O)N[C@H](C(=O)N[C@H]1CCc2cccc3c2N(C1=O)[C@H](C(=O)NCc1c[nH]nn1)C3)C1CC1 [Example 32] is ____.
Response: 5.99

Query: Fill in the blank: the reported pKi of CC[C@H](C)[C@H](NC(C)=O)C(=O)N[C@H]1CCc2cccc3c2N(C1=O)[C@H](C(=O)NCc1nn[nH]n1)C3 [Example 1] is ____.
Response: 7.13

Query: Fill in the blank: the reported pKi of CC[C@H](C)[C@H](NC(C)=O)C(=O)N[C@H]1CCc2cccc3c2N(C1=O)[C@H](C(=O)NCc1cn2cccnc2n1)C3 [Example 19] is ____.
Response: 6.10
